# procedure.summary: Inhibitory activity against gastrin receptor
IC50 by entry:
# output: bare number, implied unit nM

Some solved cases for reference:
Cc1cccc(NC(=O)NC2N=C(c3cccc(OCC(=O)NCCSCc4csc(N=C(N)N)n4)c3)c3ccccc3N(C)C2=O)c1 (configuration not stated) :: 135
Cc1cccc(NC(=O)NC2N=C(c3cccc(OCC(=O)NCCCC(=O)NCCCOc4cccc(CN5CCCCC5)c4)c3)c3ccccc3N(C)C2=O)c1 (configuration not stated) :: 60
Cc1cccc(NC(=O)NC2N=C(c3cccc(OCC(=O)NCC(=O)NCCCOc4cccc(CN5CCCCC5)c4)c3)c3ccccc3N(C)C2=O)c1 (configuration not stated) :: 63
Cc1cccc(NC(=O)NC2N=C(c3ccccc3)c3ccccc3N(CC(=O)NCC(=O)NCCCOc3cccc(CN4CCCCC4)c3)C2=O)c1 (configuration not stated) :: 790
CN1C(=O)[C@H](NC(=O)Nc2cccc(CC(=O)NCCC(=O)NCCSCc3csc(N=C(N)N)n3)c2)N=C(c2ccccc2)c2ccccc21 :: 80

Q) Recorded IC50 for Cc1cccc(NC(=O)NC2N=C(c3cccc(OCC(=O)NCC(=O)NCCSCc4csc(N=C(N)N)n4)c3)c3ccccc3N(C)C2=O)c1 (configuration not stated) , please?
A) 12

Q) Recorded IC50 for Cc1cccc(NC(=O)NC2N=C(c3cccc(OCC(=O)NCCCCCC(=O)NCCCOc4cccc(CN5CCCCC5)c4)c3)c3ccccc3N(C)C2=O)c1 (configuration not stated) , please?
A) 32

====

# procedure.summary: Inhibitory activity against gastrin receptor
test.readout: IC50 (nM)
# output: bare number, implied unit nM

Some solved cases for reference:
Cc1cccc(NC(=O)NC2N=C(c3ccccc3)c3ccccc3N(CC(=O)NCCC(=O)NCCSCc3csc(N=C(N)N)n3)C2=O)c1 (stereo not drawn) :: 75
Cc1cccc(NC(=O)NC2N=C(c3ccccc3)c3ccccc3N(CC(=O)NCCC(=O)NCCCOc3cccc(CN4CCCCC4)c3)C2=O)c1 (stereo not drawn) :: 185

// next item, IC50 requested
Q) Recorded IC50 for `CN1C(=O)[C@H](NC(=O)Nc2cccc(CC(=O)NCCCC(=O)NCCSCc3csc(N=C(N)N)n3)c2)N=C(c2ccccc2)c2ccccc21` , please?
A) 240

====

# procedure.summary: Inhibitory activity against gastrin receptor
test.readout: IC50 (nM)
# output: bare number, implied unit nM

CN1C(=O)[C@H](NC(=O)Nc2cccc(CC(=O)NCCCCCC(=O)NCCCOc3cccc(CN4CCCCC4)c3)c2)N=C(c2ccccc2)c2ccccc21 :: 110
CN1C(=O)[C@H](NC(=O)Nc2cccc(CC(=O)NCCCCCC(=O)NCCSCc3csc(N=C(N)N)n3)c2)N=C(c2ccccc2)c2ccccc21 :: 45

// next item, IC50 requested
Q) Recorded IC50 for Cc1cccc(NC(=O)NC2N=C(c3cccc(OCC(=O)NCCCC(=O)NCCSCc4csc(N=C(N)N)n4)c3)c3ccccc3N(C)C2=O)c1 (stereo not drawn) , please?
A) 14
